Ref: patent US20190106460A1

- system.name: T1, βTrCP (tag cleaved and complexed with Skp1) (UniProt Q9Y297 175-605; P63208 1-163)
- T1 construct: Protein of the FP assay (0.035 µM); also called Beta Transducin repeat-containing protein; βTrCP/Skp1
- protocol.notes: FP competition vs fluorescein-IκB peptide
Starred links: 1 amine or outer side, 2 acyl side, 3 side chain; linkers in the order of their positions; H or OH if unused. Non-standard residues stand in square brackets, D forms with d. Y(Me) = COc1ccc(C[C@H](N[*:1])C(=O)[*:2])cc1; E(OMe) = COC(=O)CC[C@H](N[*:1])C(=O)[*:2]; Phe(4-Br) = N[C@@H](Cc1ccc(Br)cc1)C(=O)O; Phe(3-F) = N[C@@H](Cc1cccc(F)c1)C(=O)O; Glutaryl = O=C(CCCC(=O)[*:2])[*:1]; Suc = O=C(CCC(=O)[*:2])[*:1]
So I've got a bunch of binders here, and I need their IC50 values.
Supply the numeric figure in µM, leaving out any unit text.

What does the record list as IC50 for Glutaryl-EGFFE-NH2 [Ga-EGFFE-NH2] ?
65

Ok, now Suc-EGF[Y(Me)][E(OMe)]-NH2 (SMILES COC(=O)CC[C@H](NC(=O)[C@H](Cc1ccc(OC)cc1)NC(=O)[C@H](Cc1ccccc1)NC(=O)CNC(=O)[C@H](CCC(=O)O)NC(=O)CCC(=O)O)C(N)=O) [Suc-EGF-Y(Me)-E(OMe)-NH2]
71

Then this binder: Suc-EG[Phe(4-Br)][Phe(3-F)]-NH2 (SMILES NC(=O)[C@H](Cc1cccc(F)c1)NC(=O)[C@H](Cc1ccc(Br)cc1)NC(=O)CNC(=O)[C@H](CCC(=O)O)NC(=O)CCC(=O)O) [Suc-EG-F(4Br)-F(3F)-NH2]
81

Check Suc-EG[Phe(3-F)][Phe(3-F)]-NH2 (SMILES NC(=O)[C@H](Cc1cccc(F)c1)NC(=O)[C@H](Cc1cccc(F)c1)NC(=O)CNC(=O)[C@H](CCC(=O)O)NC(=O)CCC(=O)O) [Suc-EG-F(3F)-F(3F)-NH2] too.
44
